- System: MS2 coat protein
- Experimental protocol: apparent KD of MS2 coat protein; designed switch direction (-1 OFF switch, 1 ON switch): -1; higher = weaker reporter binding
- Stated conditions: input ligand: FMN 200 uM
Value type: apparent KD of MS2 coat protein (nM)

{"columns": ["Query sequence", "Value measured"],
 "data": [
  ["GACUAGGGAGGAUAUAUUUACAGUGUACCUCGGAUGAUCGCACUUGAGGAUCACCCAAGUAGAAGGCUCGAGGG [EX2 #28] (Eterna round: R97, puzzle: Exclusion 2)", 30.4],
  ["GGUAGCUGAGGAUAUGCAGACGACCCUCAGUGCUGGCUUGCACAUGAGGAUCACCCAUGUAGAAGGCAGAAGCU [Eternabot (L2) Solution 5] (Eterna round: R97, puzzle: Exclusion 2)", 56],
  ["UCAAACAUCGUUAGGAUAUGCUGGACUAAAUAGUGGCAGAAGGAACAUGAGGAUCACCCAUGUGCCUCGAUUGC [Eternabot (L2) Solution 26] (Eterna round: R97, puzzle: Brourd's mod of Exclusion 4)", 17.4]
]}

Cited source: the supplement of paper PMC9170038
